# measurement.notes: Drug metabolism in bile duct cannulated Sprague-Dawley rat assessed as unchanged parent drug remaining in bile at 20 mg/kg, po after 24 hrs by HPLC/UV/MS analysis
# Type: ADME, organism-based
# Parameters: dose 20 mg/kg, route oral
# cond: read-out: Activity
assay.endpoint: dose excreted at 24 h

# compound COC[C@H](C1CC1)n1cc(C#N)nc(Nc2cc(C)c(OC(F)F)nc2C)c1=O ; its dose excreted at 24 h = 3%

###

# measurement.notes: Octanol-water partition coefficient, log D at pH 7.4
# Type: physicochemical
Below, each entry is listed alongside its reported logD.
Number only, please.

Worked cases, logD given:
CC[C@H](C1CC1)n1cc(C#N)nc(Nc2cc(C)c(OC)nc2C)c1=O
4.1
COC[C@H](C1CC1)n1cc(Cl)nc(Nc2cc(C)c(OC)nc2C)c1=O
3.9

Okay, next one:
# compound COC[C@H](C1CC1)n1cc(C#N)nc(Nc2cc(C)c(OC(F)F)nc2C)c1=O ; its logD = 3.9

###

# System: Rattus norvegicus
# measurement.notes: Total plasma concentration in Sprague-Dawley rat at 0.56 mg/kg, po after 1 to 3 hrs by LC/MS/MS analysis
# Assay type: ADME, organism-based
# Design: dose 0.56 mg/kg, route oral
# cond: in vivo
assay.endpoint: concentration
A complete answer gives the number followed by the unit.

# compound COC[C@H](C1CC1)n1cc(C#N)nc(Nc2cc(C)c(OC(F)F)nc2C)c1=O ; its concentration = 24 nM

###

# measurement.notes: Cmax in Beagle dog at 3 mg/kg, po dosed as aqueous suspension of Labrafil M 1944CS/DMAC/polysorbate 80, 85:10:5 (v/v) after 2 to 4 hrs by LC/MS/MS analysis
# Format: ADME, organism-based, Canis lupus familiaris
# Design: dose 3 mg/kg, route oral
# cond: in vivo
assay.endpoint: Cmax
A complete answer gives the number followed by the unit.

# compound COC[C@H](C1CC1)n1cc(C#N)nc(Nc2cc(C)c(OC(F)F)nc2C)c1=O ; its Cmax = 1400 nM

###

# measurement.notes: AUC in Sprague-Dawley rat at 10 mg/kg, po dosed as aqueous suspension of Labrafil M 1944CS/DMAC/polysorbate 80, 85:10:5 (v/v) after 0.25 to 24 hrs by LC/MS/MS analysis
# Format: ADME, organism-based
# Design: time 0.25-24 hr, dose 10 mg/kg, route oral
# cond: plasma
I would appreciate it if you labelled entries true when AUC is 5 µM·h or higher, otherwise false.

COC[C@H](C1CC1)n1cc(C#N)nc(Nc2cc(C)c(OC(F)F)nc2C)c1=O
true
CC[C@H](C1CC1)n1cc(C#N)nc(Nc2cc(C)c(OC)nc2C)c1=O
false
Cc1cc(Nc2nc(C#N)cn([C@H](C)C3CC3)c2=O)c(C)nc1OC(F)F
true
COC[C@H](C1CC1)n1cc(Cl)nc(Nc2cc(C)c(OC(F)F)nc2C)c1=O
true
COC[C@@H](C1CC1)n1cc(Cl)nc(Nc2cc(C)c(OC(F)F)nc2C)c1=O
false

# evaluate next
Please check the record COC[C@H](C1CC1)n1cc(Cl)nc(Nc2cc(C)c(OC)nc2C)c1=O and state if its AUC is at or above 5 µM·h. false

###

# measurement.notes: Metabolic stability in NADPH-fortified rat liver microsomes assessed as parent compound remaining at 10 uM after 30 mins by HPLC/UV/MS analysis
# Type: ADME, Microsome
# cond: read-out: Stability
Below, each entry is listed alongside its reported remaining at 0.5 h, 10 µM.

# compound C[C@@H](C1CC1)n1cc(Cl)nc(Nc2c(Cl)cc(OC(F)F)cc2Cl)c1=O ; its remaining at 0.5 h, 10 µM = 74%

# compound COC[C@H](C1CC1)n1cc(Cl)nc(Nc2cc(C)c(OC(F)F)nc2C)c1=O ; its remaining at 0.5 h, 10 µM = 42%

# compound COC[C@H](C1CC1)n1cc(C#N)nc(Nc2cc(C)c(OC(F)F)nc2C)c1=O ; its remaining at 0.5 h, 10 µM = 82%

# compound Cc1cc(Nc2nc(C#N)cn([C@H](C)C3CC3)c2=O)c(C)nc1OC(F)F ; its remaining at 0.5 h, 10 µM = 80%
